Test system: MS2 coat protein
assayText: apparent KD of MS2 coat protein; designed switch direction (-1 OFF switch, 1 ON switch): -1; higher = weaker reporter binding
testParameters: input ligand: none
# Lookup of reported apparent KD of MS2 coat protein keyed by entry

sequenceRecord	assayedSystem	apparent KD of MS2 coat protein (nM)
UGAUCACAUGAGGAUCACCCAUGUCAGGAUAUCUACAUUGAAGCUUCGGCUUCAAUGUAGAGAAGGGACAUAAU [E1/3-B1] (Eterna round: R97, puzzle: Exclusion 1)	MS2 coat protein	175
AGAUAGUGGUGAGGAUAUCAGAAUAGAAAGAAAUGAGAAGGCACACAUGAGGAUCACCCAUGUGAGGUCUUGAGACUACAUGGU [Prohibition 40 - Jieux - Exclusion NG 1] (Eterna round: R96, puzzle: Exclusion NG 1)	MS2 coat protein	17.3
AGCAAGCUUUUAAGAUCCUACAUGAGGAUCACCCAUGUGCUCGUCUUGUAACGUACUGUGACGAAAGUCACGGUACG [JL TOV1 3.31] (Eterna round: R97, puzzle: Sensor, turn-off variant 1)	MS2 coat protein	506
AAAAGAACAUGAGGAUCACCCAUGUGAACCUUCGUUCGACCUCAGGAUAUCCGCCACCGUCCGCAGGAGAAGGGAGGUAAAAUA [Quraa] (Eterna round: R96, puzzle: Exclusion NG 3)	MS2 coat protein	58.8
CAGUACUGAGGAUAUACAUGAGGAUCACCCAUGUUGAGAUGAAAAGAAAGAGUUAAAUGUAGAAGGCGGUGCUG [JR_Ex3_Sub047] (Eterna round: R97, puzzle: Exclusion 3)	MS2 coat protein	71.1
CCCUUGUGAGGAUAUUUUUAAAAUGCUAACCACAAUUUUAUGAAGAAGGUACAUGAGGAUCACCCAUGUUUCUC [Tried to obey the law of the pack] (Eterna round: R97, puzzle: Exclusion 4)	MS2 coat protein	21
GGGAAGGGAGGAUAUGAGGGAGAGAACAUGAGGAUCACCCAUGUGAGACCUCAGGAUCGAUCAGAAGGCCCGACCC [AK-MS2ROC-r4-exclusion5-13.1] (Eterna round: R97, puzzle: Exclusion 5)	MS2 coat protein	92.2
GUUGUAUGAGGAUAUACAUGAGGAUCACCCAUGUGUGUUGUGAACGACGUACGUUUAUGUAGAAGGCGUGCGGC [-24.9, -21.8 kcal, 24% A] (Eterna round: R97, puzzle: Exclusion 3)	MS2 coat protein	17.9
UGAUCACAUGAGGAUCACCCAUGUCAGGAUAUCUACAUUGAAGCUUCGGCUUCAAUGUAGAGAAGGGAUAUAAU [E1/5-B1] (Eterna round: R97, puzzle: Exclusion 1)	MS2 coat protein	82.8
